Biological target: EPHA3 (Homo sapiens, UniProt P29320)
Construct: human EPHA3 intracellular domain (amino acids 571-986) containing juxtamembrane, kinase and SAM regions; 6xHis
Sequence (P29320 571-983 limits assumed): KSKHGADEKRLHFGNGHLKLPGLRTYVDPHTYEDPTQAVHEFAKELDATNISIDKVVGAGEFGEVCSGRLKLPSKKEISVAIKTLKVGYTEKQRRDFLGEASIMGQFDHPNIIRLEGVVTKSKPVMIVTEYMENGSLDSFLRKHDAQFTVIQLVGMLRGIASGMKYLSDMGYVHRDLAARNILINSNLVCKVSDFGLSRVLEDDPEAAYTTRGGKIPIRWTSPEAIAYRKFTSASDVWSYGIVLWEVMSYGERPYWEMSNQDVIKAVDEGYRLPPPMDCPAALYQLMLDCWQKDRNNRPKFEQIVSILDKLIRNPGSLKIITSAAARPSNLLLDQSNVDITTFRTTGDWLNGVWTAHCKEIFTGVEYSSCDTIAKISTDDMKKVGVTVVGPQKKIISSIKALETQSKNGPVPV
Experiment: DELFIA EPHA3 kinase assay (phosphorylation of biotin-Src-peptide)
Details: EPHA3 30 nM, biotin-Src-peptide 1 μM, ATP 30 μM, 3 hr incubation at 37° C., read-out: EPHA3 Potency IC50
Lab note: compare IC50 with 0.5 µM, writing true if less and false if equal or more.

Some solved entries appear below for comparison.
COc1cc2c(Nc3ccc(Cl)c(Br)c3)ncnc2cc1OCC1CN(C)CCO1 (stereo not drawn): true
COc1cc2c(Nc3ccc(Cl)cc3F)ncnc2cc1OCC1CN(C(C)C)CCO1 (stereo not drawn): false
COc1cc2c(Nc3ccc(Cl)cc3F)ncnc2cc1OCC1CCN(C)CC1: false
COc1cc2c(Nc3ccc(Cl)c(Cl)c3)ncnc2cc1OCC1CN(C)CCO1 (stereo not drawn): true
COc1cc2ncnc(Nc3ccc(Cl)c(Cl)c3)c2cc1OC: false

Please state whether IC50 is below 0.5 µM for COc1cc2c(Nc3ccc(Cl)cc3F)ncnc2cc1OCC1CN(C2CCCC2)CCO1 (stereo not drawn) true

Next record, please: COc1cc2c(Nc3ccc(Cl)cc3F)ncnc2cc1OCC1CN(C)CCO1 (stereo not drawn) true
